# Method: NOD1 signaling inhibitors, primary screen, cell-based, luminescence, uHTS (AID 1578);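 also: HEK-293T reporter cells stimulated with the NOD1 agonist gamma-tri-DAP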
# Test Conditions: NOD1-driven NF-kB luciferase reporter cells, at 4 µM, active compounds read high
Hit rate of the full screen: of about 290,000 compounds, about 3,000 (1%) were called active. What follows is part of a selection rich in actives, with near analogues and random picks from the rest.
Readout Kind: inhibition (%)
Write it as a number; the unit % goes unstated.

Solved entries (count: 2):
[[record]]
compound = "O=S(=O)(Nc1ccc(N2CCOCC2)cc1)c1cccs1"
readout_kind = "inhibition"
unit_symbol = "%"
result_value = -20.1

[[record]]
compound = "NNc1nc(-c2ccccc2)cc(-c2ccccc2O)n1"
readout_kind = "inhibition"
unit_symbol = "%"
result_value = 3.5


What inhibition value was documented for this compound, `COc1cccc2cc(C(=O)NCc3ccc(Cl)cc3)c(=N)oc12` ? 85.8

For the compound COc1ccc2[nH]c(=O)c(CN(Cc3cccnc3)C(=S)NCC3CCCO3)cc2c1 (centres undefined) , what inhibition is on record? -30.3
